targetSystem: HLA-B*15:42
experimentDescription: IEDB peptide-MHC binding, purified MHC/competitive/fluorescence; filed as Kd, often an IC50 or EC50 that approximates it; bounds were set here for any values at or beyond the usual limits of such assays
conditionParameters: source organism: dengue virus type 1
pKd: −log10 of the molar value.
metricName: pKd

Entry FTMRLLSPV : reported pKd = ? ≤ 5.30

* * *

targetSystem: HLA-A*03:01
experimentDescription: IEDB peptide-MHC binding, purified MHC/competitive/radioactivity; filed as Kd, often an IC50 or EC50 that approximates it; bounds were set here for any values at or beyond the usual limits of such assays
conditionParameters: source organism: Murray valley encephalitis virus (strain MVE-1-51)
metricName: pKd
Expect pKd as a plain number equal to -log10 of the molar concentration.

Entry VQTKPGIFK : reported pKd = ? 6.56

* * *

targetSystem: HLA-B*27:03
experimentDescription: IEDB peptide-MHC binding, purified MHC/direct/fluorescence; filed as Kd, often an IC50 or EC50 that approximates it; bounds were set here for any values at or beyond the usual limits of such assays
conditionParameters: source organism: Bacillus cereus G9842
metricName: Kd

Hi! What's the reported Kd for TQIPRQMVL on HLA-B*27:03? ≥ 20 µM

* * *

targetSystem: HLA-B*83:01
experimentDescription: IEDB peptide-MHC binding, purified MHC/competitive/fluorescence; filed as Kd, often an IC50 or EC50 that approximates it; bounds were set here for any values at or beyond the usual limits of such assays
conditionParameters: source organism: dengue virus type 1
metricName: Kd

Hi! What's the reported Kd for FTMRLLSPV on HLA-B*83:01? ≥ 5 µM

* * *

targetSystem: HLA-A*24:03
experimentDescription: IEDB peptide-MHC binding, purified MHC/competitive/fluorescence; filed as Kd, often an IC50 or EC50 that approximates it; bounds were set here for any values at or beyond the usual limits of such assays
conditionParameters: source organism: Mycobacterium tuberculosis variant bovis BCG str. Pasteur 1173P2
pKd: −log10 of the molar value.
metricName: pKd

Entry DEGFHAATV : reported pKd = ? ≤ 4.70

* * *

targetSystem: HLA-A*02:16
experimentDescription: IEDB peptide-MHC binding, purified MHC/direct/fluorescence; filed as Kd, often an IC50 or EC50 that approximates it; bounds were set here for any values at or beyond the usual limits of such assays
conditionParameters: source organism: Choclo virus
pKd: −log10 of the molar value.
metricName: pKd

Entry LRYGNVLDV : reported pKd = ? ≤ 4.70

* * *

targetSystem: HLA-A*11:01
experimentDescription: IEDB peptide-MHC binding, purified MHC/competitive/radioactivity; filed as Kd, often an IC50 or EC50 that approximates it; bounds were set here for any values at or beyond the usual limits of such assays
conditionParameters: source organism: Vaccinia virus WR
metricName: Kd (µM)
Numbers only; they are read as µM.

Hi! What's the reported Kd for SMNVAVIDK on HLA-A*11:01? 0.000278

Hi! What's the reported Kd for LSSKGLACYR on HLA-A*11:01? 0.0438

Hi! What's the reported Kd for QMLTSGEYK on HLA-A*11:01? 0.00367

Hi! What's the reported Kd for DLVKSYSLIR on HLA-A*11:01? 6.72

Hi! What's the reported Kd for HSVFKGFSDK on HLA-A*11:01? 0.0135

Hi! What's the reported Kd for VIEDITFLR on HLA-A*11:01? 0.0546

Hi! What's the reported Kd for FSKSTSPTR on HLA-A*11:01? 12.3

Hi! What's the reported Kd for QIFEVYWYL on HLA-A*11:01? 0.0673

Hi! What's the reported Kd for DLVKSSFVK on HLA-A*11:01? 0.127

Hi! What's the reported Kd for AVRYYDGNIY on HLA-A*11:01? 0.272

Hi! What's the reported Kd for FVKKFGLCNY on HLA-A*11:01? 15.1

Hi! What's the reported Kd for RQTVSRFKK on HLA-A*11:01? 0.0407

Hi! What's the reported Kd for ILTYNKTSK on HLA-A*11:01? 1.26

Hi! What's the reported Kd for GLSETGFMR on HLA-A*11:01? 2.71

Hi! What's the reported Kd for GFMRFFQLLR on HLA-A*11:01? 0.937

Hi! What's the reported Kd for IIVNNQESNK on HLA-A*11:01? 4.4

Hi! What's the reported Kd for YANLDDVYSY on HLA-A*11:01? 0.0382

Hi! What's the reported Kd for LIKKSDAKR on HLA-A*11:01? 0.236

Hi! What's the reported Kd for CAGVIEYAK on HLA-A*11:01? 0.192

Hi! What's the reported Kd for NFPQHVITK on HLA-A*11:01? 2.05

Hi! What's the reported Kd for LFVKKMLPK on HLA-A*11:01? 0.239

* * *

targetSystem: HLA-A*02:03
experimentDescription: IEDB peptide-MHC binding, purified MHC/direct/fluorescence; filed as Kd, often an IC50 or EC50 that approximates it; bounds were set here for any values at or beyond the usual limits of such assays
conditionParameters: source organism: Orthohantavirus negraense
pKd: −log10 of the molar value.
metricName: pKd

Entry RRFTQAIYD : reported pKd = ? ≤ 4.70

* * *

targetSystem: HLA-B*40:01
experimentDescription: IEDB peptide-MHC binding, purified MHC/competitive/radioactivity; filed as Kd, often an IC50 or EC50 that approximates it; bounds were set here for any values at or beyond the usual limits of such assays
conditionParameters: source organism: Lymphocytic choriomeningitis virus (strain Armstrong)
metricName: pKd
Expect pKd as a plain number equal to -log10 of the molar concentration.

Hi! What's the reported pKd for IEVALRTLLL on HLA-B*40:01? 5.89

* * *

targetSystem: HLA-A*02:01
experimentDescription: IEDB peptide-MHC binding, purified MHC/competitive/fluorescence; filed as Kd, often an IC50 or EC50 that approximates it; bounds were set here for any values at or beyond the usual limits of such assays
conditionParameters: source organism: Homo sapiens
metricName: pKd
Expect pKd as a plain number equal to -log10 of the molar concentration.

Entry YQGSYGFRL : reported pKd = ? 7.89

Entry AVAANIVLTV : reported pKd = ? 6.68

Entry FLNPVIYTF : reported pKd = ? 8.80

* * *

targetSystem: HLA-B*08:01
experimentDescription: IEDB peptide-MHC binding, purified MHC/competitive/fluorescence; filed as Kd, often an IC50 or EC50 that approximates it; bounds were set here for any values at or beyond the usual limits of such assays
conditionParameters: source organism: Homo sapiens
pKd: −log10 of the molar value.
metricName: pKd

Entry FRHSVVVPY : reported pKd = ? ≤ 4.70

* * *

targetSystem: HLA-B*15:01
experimentDescription: IEDB peptide-MHC binding, purified MHC/competitive/radioactivity; filed as Kd, often an IC50 or EC50 that approximates it; bounds were set here for any values at or beyond the usual limits of such assays
conditionParameters: source organism: Vaccinia virus WR
Give pKd for every item shown.
Expect pKd as a plain number equal to -log10 of the molar concentration.

Entry KTINALVYF : reported pKd = ? 9.44

Entry SINNIDPHF : reported pKd = ? 7.92

Entry LFLDIECHF : reported pKd = ? 6.26

Entry SQIITLTAF : reported pKd = ? 9.00

Entry FIIKSSYVF : reported pKd = ? 8.49

Entry NIREIEEHM : reported pKd = ? 6.63

Entry KLRQIVAYF : reported pKd = ? 8.12

* * *

targetSystem: HLA-B*51:01
experimentDescription: IEDB peptide-MHC binding, purified MHC/competitive/fluorescence; filed as Kd, often an IC50 or EC50 that approximates it; bounds were set here for any values at or beyond the usual limits of such assays
conditionParameters: source organism: Vibrio vulnificus YJ016
metricName: pKd
Expect pKd as a plain number equal to -log10 of the molar concentration.

Entry EPYPPKGPV : reported pKd = ? 6.08

* * *

targetSystem: HLA-A*03:01
experimentDescription: IEDB peptide-MHC binding, purified MHC/direct/fluorescence; filed as Kd, often an IC50 or EC50 that approximates it; bounds were set here for any values at or beyond the usual limits of such assays
conditionParameters: source organism: West Nile virus
pKd: −log10 of the molar value.
Give pKd for every item shown.

Hi! What's the reported pKd for LVKTESWIL on HLA-A*03:01? ≤ 4.70

Hi! What's the reported pKd for YTMDGEYRL on HLA-A*03:01? ≤ 4.70

Hi! What's the reported pKd for AHYEEDVNL on HLA-A*03:01? ≤ 4.70

* * *

targetSystem: HLA-B*08:02
experimentDescription: IEDB peptide-MHC binding, purified MHC/direct/fluorescence; filed as Kd, often an IC50 or EC50 that approximates it; bounds were set here for any values at or beyond the usual limits of such assays
conditionParameters: source organism: Burkholderia mallei ATCC 23344
pKd: −log10 of the molar value.
metricName: pKd

Entry AVAVARVAA : reported pKd = ? ≤ 4.70
